# Tested on: OVCAR-4 ovarian
# Assay notes: NCI tumour cell line growth inhibition, 48 h
Metric name: TGI

Molecule: C/C(=C\c1ccccc1)n1c(=O)cc(C)n1C
Metric name: TGI
Result: > 100 µM
//
Molecule: O=C1c2ccccc2-c2c1c1ccccc1c(=O)n2CCCNCCO
Metric name: TGI
Result: 5.95 µM
//
Molecule: COC(=O)C12CC(NC(=O)c3csc([C@@H](C[C@H](C(C)C)N(C)C(=O)[C@@H](NC(=O)[C@H]4CCCCN4C)C(C)C)OC(C)=O)n3)(C1)C2
Metric name: TGI
Result: > 33.3 µM
//
Molecule: CCOC(=O)CCC(NC(=O)c1ccc(Nc2nc3cc(N)cc(N)c3nc2-c2ccccc2)cc1)C(=O)OCC (stereo not given)
Metric name: TGI
Result: > 100 µM
//
Molecule: Nc1ccc(C(=O)N/C(=C\c2ccc3c(c2)OCO3)c2nc3ccc4c(c3[nH]2)C(=O)c2ccccc2C4=O)cc1
Metric name: TGI
Result: > 100 µM
